- TEST SYSTEM: ALK5 (Homo sapiens)
- Construct: endogenous in cells
- Sequence (P36897 34-503): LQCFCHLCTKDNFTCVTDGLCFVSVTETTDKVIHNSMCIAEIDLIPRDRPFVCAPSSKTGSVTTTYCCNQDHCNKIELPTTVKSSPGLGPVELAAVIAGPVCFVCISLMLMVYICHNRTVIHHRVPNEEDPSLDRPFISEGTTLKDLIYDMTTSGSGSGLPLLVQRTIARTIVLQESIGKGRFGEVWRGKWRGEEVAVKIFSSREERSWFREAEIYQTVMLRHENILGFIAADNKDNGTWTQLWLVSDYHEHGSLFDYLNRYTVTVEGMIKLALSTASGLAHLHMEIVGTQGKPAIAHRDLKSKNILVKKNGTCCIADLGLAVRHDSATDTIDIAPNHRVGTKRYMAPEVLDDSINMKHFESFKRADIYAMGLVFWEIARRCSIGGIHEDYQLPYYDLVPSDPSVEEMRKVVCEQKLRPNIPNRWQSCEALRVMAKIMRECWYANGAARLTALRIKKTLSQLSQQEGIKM
- ASSAY: Cell-based luciferase reporter assay for ALK5 activity
- EXPERIMENTAL PARAMETERS: (CAGA)-12-luciferase reporter, Smad 2/3-responsive promoter, 2 ng/ml TGF-β1 stimulation for 12 hours; read-out: Relative luciferase activity: IC50 value
EXPERIMENTAL ENDPOINT: IC50

COMPOUND	IC50
Cc1cccc(-c2[nH]c(CNc3ccc(Cl)c(Cl)c3)nc2-c2ccn3nccc3c2)n1 [Example 2]	< 10 nM
Cc1cccc(-c2[nH]c(CNc3cccc(Cl)c3F)nc2-c2ccn3ncnc3c2)n1 [Example 4]	< 10 nM
CNC(=O)c1cccc(CNc2nc(-c3ccn4ncnc4c3)c(-c3cccc(C)n3)[nH]2)c1 [Example 24]	> 100 nM
Cc1cccc(-c2[nH]c(NC(C)c3ccccc3F)nc2-c2ccn3ncnc3c2)n1 (stereo not drawn) [Example 27]	10 to 100 nM
Cc1cccc(-c2[nH]c(NCc3cc(Cl)ccc3F)nc2-c2ccn3ncnc3c2)n1 [Example 19]	10 to 100 nM

Record request: IC50 value, item Cc1cccc(-c2[nH]c(NCc3cccc(F)c3)nc2-c2ccn3ncnc3c2)n1 [Example 12]
10 to 100 nM
